Assay system A. baumannii ATCC 747 (Ab47); read-out recorded as MIC.
Value type: MIC

# Mol, Value type, Measured result
data = [
    ("O=C(O)c1ccc(-n2cc(/C=N/N(c3ccccc3)c3ccccc3)c(-c3ccc4ccccc4c3)n2)cc1", "MIC", "> 50 µg/mL"),
    ("CN(C)/N=C/c1cn(-c2ccc(C(=O)O)cc2)nc1-c1ccc2ccccc2c1", "MIC", "> 50 µg/mL"),
    ("O=C(O)c1ccc(-n2cc(/C=N/Nc3ccc(Cl)cc3)c(-c3ccc4ccccc4c3)n2)cc1", "MIC", "6.25 µg/mL"),
    ("O=C(O)c1ccc(-n2cc(/C=N/N(Cc3ccccc3)Cc3ccccc3)c(-c3ccc4ccccc4c3)n2)cc1", "MIC", "> 50 µg/mL"),
    ("O=C(O)c1ccc(-n2cc(/C=N/N3CCCCC3)c(-c3ccc4ccccc4c3)n2)cc1", "MIC", "> 50 µg/mL"),
    ("O=C(O)c1ccc(-n2cc(/C=N/Nc3cc(F)ccc3F)c(-c3ccc4ccccc4c3)n2)cc1", "MIC", "> 50 µg/mL"),
    ("O=C(O)c1ccc(-n2cc(/C=N/Nc3ccc(F)c(Cl)c3)c(-c3ccc4ccccc4c3)n2)cc1", "MIC", "12.5 µg/mL"),
    ("O=C(O)c1ccc(-n2cc(/C=N/Nc3ccccc3)c(-c3ccc4ccccc4c3)n2)cc1", "MIC", "> 50 µg/mL"),
]

====

These records show MIC for S. aureus BAA-2312 (Sa12).
Value type: MIC (µg/mL)

# Compound, Comparator, Measured result
measured = [
    ("O=C(O)c1ccc(-n2cc(/C=N/Nc3cccc(F)c3)c(-c3ccc4ccccc4c3)n2)cc1", "=", 12.5),
    ("O=C(O)c1ccc(-n2cc(/C=N/Nc3cccc(Br)c3)c(-c3ccc4ccccc4c3)n2)cc1", "=", 6.25),
    ("O=C(O)c1ccc(-n2cc(/C=N/NC3=NCCN3)c(-c3ccc4ccccc4c3)n2)cc1", ">", 50),
    ("O=C(O)c1ccc(-n2cc(/C=N/Nc3ccc(F)c(Cl)c3)c(-c3ccc4ccccc4c3)n2)cc1", "=", 3.12),
    ("O=C(O)c1ccc(-n2cc(/C=N/Nc3c(F)c(F)cc(F)c3F)c(-c3ccc4ccccc4c3)n2)cc1", ">", 50),
    ("O=C(O)c1ccc(-n2cc(/C=N/N3CCCCC3)c(-c3ccc4ccccc4c3)n2)cc1", ">", 50),
    ("O=C(O)c1ccc(-n2cc(/C=N/Nc3c(F)c(F)c(F)c(F)c3F)c(-c3ccc4ccccc4c3)n2)cc1", ">", 50),
    ("O=C(O)c1ccc(N/N=C/c2cn(-c3ccc(C(=O)O)cc3)nc2-c2ccc3ccccc3c2)cc1", ">", 50),
    ("CN[C@H](CC(C)C)C(=O)N[C@H]1C(=O)N[C@@H](CC(N)=O)C(=O)N[C@H]2C(=O)N[C@H]3C(=O)N[C@H](C(=O)N[C@H](C(=O)O)c4cc(O)cc(O)c4-c4cc3ccc4O)[C@H](O)c3ccc(c(Cl)c3)Oc3cc2cc(c3O[C@@H]2O[C@H](CO)[C@@H](O)[C@H](O)[C@H]2O[C@H]2C[C@](C)(N)[C@H](O)[C@H](C)O2)Oc2ccc(cc2Cl)[C@H]1O [VC, vancomycin, reference compound]", "=", 0.78),
    ("O=C(O)c1ccc(-n2cc(/C=N/N(Cc3ccccc3)Cc3ccccc3)c(-c3ccc4ccccc4c3)n2)cc1", "=", 3.12),
    ("N#Cc1ccc(N/N=C/c2cn(-c3ccc(C(=O)O)cc3)nc2-c2ccc3ccccc3c2)cc1", ">", 50),
    ("O=C(O)c1ccc(-n2cc(/C=N/N(Cc3ccccc3)c3ccccc3)c(-c3ccc4ccccc4c3)n2)cc1", "=", 3.12),
    ("O=C(O)c1ccc(-n2cc(/C=N/Nc3cc(F)ccc3F)c(-c3ccc4ccccc4c3)n2)cc1", "=", 3.12),
]

====

- Test system: S. aureus ATCC 33591 (Sa91)
Value type: MIC (µg/mL)

# Mol, Comparator, Measured result
data = [
    ("COc1ccc(N/N=C/c2cn(-c3ccc(C(=O)O)cc3)nc2-c2ccc3ccccc3c2)cc1", "=", 25),
    ("O=C(O)c1ccc(-n2cc(/C=N/Nc3cccc(F)c3)c(-c3ccc4ccccc4c3)n2)cc1", "=", 12.5),
    ("CN1CCN(/N=C/c2cn(-c3ccc(C(=O)O)cc3)nc2-c2ccc3ccccc3c2)CC1", ">", 50),
    ("CN(C)/N=C/c1cn(-c2ccc(C(=O)O)cc2)nc1-c1ccc2ccccc2c1", ">", 50),
    ("CCc1ccccc1N/N=C/c1cn(-c2ccc(C(=O)O)cc2)nc1-c1ccc2ccccc2c1", "=", 25),
    ("Cc1ccc(N/N=C/c2cn(-c3ccc(C(=O)O)cc3)nc2-c2ccc3ccccc3c2)cc1", "=", 25),
    ("O=C(O)c1ccc(-n2cc(/C=N/Nc3cccc(Br)c3)c(-c3ccc4ccccc4c3)n2)cc1", "=", 6.25),
    ("O=C(O)c1ccc(-n2cc(/C=N/Nc3c(F)c(F)c(F)c(F)c3F)c(-c3ccc4ccccc4c3)n2)cc1", ">", 50),
]

====

- Test system: S. aureus BAA-2312 (Sa12)
- Test details: MIC, microdilution with resazurin
- Type: cell-based
- Experimental context: Staphylococcus aureus, BAA2312, read-out: MIC Sa12
Known MIC of a selection of compounds
Value type: MIC (µg/mL)

# Mol, Value type, Unit tag, Comparator, Measured result
rows = [
    ("O=C(O)c1ccc(-n2cc(/C=N/N(c3ccccc3)c3ccccc3)c(-c3ccc4ccccc4c3)n2)cc1", "MIC", "µg/mL", "=", 3.12),
    ("CN(/N=C/c1cn(-c2ccc(C(=O)O)cc2)nc1-c1ccc2ccccc2c1)c1ccccc1", "MIC", "µg/mL", ">", 50),
    ("O=C(O)c1ccc(-n2cc(/C=N/Nc3ccc(Cl)cc3Cl)c(-c3ccc4ccccc4c3)n2)cc1", "MIC", "µg/mL", "=", 3.12),
    ("O=C(O)c1ccc(-n2cc(/C=N/Nc3ccc([N+](=O)[O-])cc3)c(-c3ccc4ccccc4c3)n2)cc1", "MIC", "µg/mL", ">", 50),
    ("O=C(O)c1ccc(-n2cc(/C=N/Nc3ccccc3)c(-c3ccc4ccccc4c3)n2)cc1", "MIC", "µg/mL", "=", 25),
    ("O=C(O)c1ccc(-n2cc(/C=N/Nc3ccc(Cl)cc3)c(-c3ccc4ccccc4c3)n2)cc1", "MIC", "µg/mL", "=", 6.25),
    ("CCc1ccccc1N/N=C/c1cn(-c2ccc(C(=O)O)cc2)nc1-c1ccc2ccccc2c1", "MIC", "µg/mL", "=", 25),
    ("O=C(O)c1ccc(-n2cc(/C=N/Nc3ccc(Br)cc3)c(-c3ccc4ccccc4c3)n2)cc1", "MIC", "µg/mL", "=", 12.5),
]

====

As an illustration, consider measured MIC for molecules on A. baumannii ATCC 747 (Ab47).

# Mol, Target entity, MIC
rows = [
    ("O=C(O)c1ccc(-n2cc(/C=N/Nc3c(F)c(F)cc(F)c3F)c(-c3ccc4ccccc4c3)n2)cc1", "A. baumannii ATCC 747 (Ab47)", "> 50 µg/mL"),
    ("O=C(O)c1ccc(-n2cc(/C=N/NC3=NCCN3)c(-c3ccc4ccccc4c3)n2)cc1", "A. baumannii ATCC 747 (Ab47)", "> 50 µg/mL"),
    ("COC(=O)N/N=C/c1cn(-c2ccc(C(=O)O)cc2)nc1-c1ccc2ccccc2c1", "A. baumannii ATCC 747 (Ab47)", "> 50 µg/mL"),
]

====

Catalogue of MIC values
- Test system: S. aureus ATCC 33591 (Sa91)

# Mol, MIC
records = [
    ("O=C(O)c1ccc(N/N=C/c2cn(-c3ccc(C(=O)O)cc3)nc2-c2ccc3ccccc3c2)cc1", "> 50 µg/mL"),
    ("O=C(O)c1ccc(-n2cc(/C=N/NC3=NCCN3)c(-c3ccc4ccccc4c3)n2)cc1", "> 50 µg/mL"),
    ("COC(=O)N/N=C/c1cn(-c2ccc(C(=O)O)cc2)nc1-c1ccc2ccccc2c1", "> 50 µg/mL"),
    ("O=C(O)c1ccc(-n2cc(/C=N/Nc3ccc(Cl)cc3)c(-c3ccc4ccccc4c3)n2)cc1", "12.5 µg/mL"),
]

====

- Tested on: S. aureus BAA-2312 (Sa12)

# Compound, MIC
measured = [
    ("COC(=O)N/N=C/c1cn(-c2ccc(C(=O)O)cc2)nc1-c1ccc2ccccc2c1 [Compound 34]", "> 50 µg/mL"),
    ("O=C(O)c1ccc(-n2cc(/C=N/n3cnnc3)c(-c3ccc4ccccc4c3)n2)cc1 [Compound 32]", "> 50 µg/mL"),
    ("O=C(O)c1ccc(-n2cc(/C=N/Nc3ccccc3F)c(-c3ccc4ccccc4c3)n2)cc1 [Compound 14]", "12.5 µg/mL"),
    ("O=C(O)c1ccc(-n2cc(/C=N/Nc3ccc(C(F)(F)F)cc3)c(-c3ccc4ccccc4c3)n2)cc1 [Compound 25]", "12.5 µg/mL"),
    ("COc1ccc(N/N=C/c2cn(-c3ccc(C(=O)O)cc3)nc2-c2ccc3ccccc3c2)cc1 [Compound 13]", "> 25 µg/mL"),
    ("CN1CCN(/N=C/c2cn(-c3ccc(C(=O)O)cc3)nc2-c2ccc3ccccc3c2)CC1 [Compound 31]", "> 50 µg/mL"),
    ("Cc1ccc(N/N=C/c2cn(-c3ccc(C(=O)O)cc3)nc2-c2ccc3ccccc3c2)cc1 [Compound 11]", "25 µg/mL"),
    ("CN(C)/N=C/c1cn(-c2ccc(C(=O)O)cc2)nc1-c1ccc2ccccc2c1 [Compound 29]", "> 50 µg/mL"),
]
